Each entry below lists one item and its recorded normalized growth value.
experiment: chemical genetic growth profiling, strain panel (AID 1159580);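 note: tested at 20 µM; growth read once vehicle control cultures reached saturation at 30 °C; 1 = growth at the plate median or of vehicle wells; lower values mean less growth of the strain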; settings: S. cerevisiae deletion strains, growth OD, locus YAL026C, strain drs2, active compounds read low
About 2,000 (36%) of roughly 5,500 compounds were called active. Roughly 18% stayed inconclusive and do not appear here. The list shows a part of the results.

COMPOUND	normalized growth
CC(CCC(=O)O)[C@H]1CCC2C3C[C@H](O)[C@@H]4C[C@H](O)CC[C@]4(C)C3CC[C@@]21C (some centres undefined)	1.01 (inactive)
C=C1C2=CC(=O)O[C@@H](c3ccoc3)[C@]2(C)CCC1[C@@]1(C)C=CC(=O)C(C)(C)[C@@H]1CC(=O)OC (some centres undefined)	0.996 (inactive)
CC12CC3CC(C)(C1)CC(N)(C3)C2	0.99 (inactive)
CCN(CC)C(C)CN1c2ccccc2Sc2ccccc21 (centres undefined)	0.77 (active)
CC1CCC2(OC1)OC1CC3C4CCC5C[C@@H](O)CCC5(C)C4=CCC3(C)C1[C@@H]2C (some centres undefined)	0.999 (inactive)
CCCCCC1C(=O)CCC1CC(=O)OC (centres undefined)	0.988 (inactive)
COc1cc(OC)c(OC)cc1C=O	1 (inactive)
O=[N+]([O-])c1cccc2cn[nH]c12	1 (inactive)
CC(=O)O[C@H]1C[C@@H](OC(C)=O)C(C)(C)C2CC(=O)[C@]3(C)C(CC[C@@]4(C)[C@H](c5ccoc5)OC(=O)[C@H]5O[C@]543)[C@]21C (some centres undefined)	0.982 (inactive)
CN[C@@H]1[C@H](OC2[C@H](O[C@H]3[C@H](O)[C@@H](O)[C@H](N=C(N)N)[C@@H](O)[C@@H]3N=C(N)N)O[C@@H](C)[C@]2(O)C=O)O[C@@H](CO)[C@H](O)[C@H]1O (some centres undefined)	0.993 (inactive)
CC(CN(C)C)CN1c2ccccc2Sc2ccccc21 (centres undefined)	0.951 (inactive)
COc1c2ccccc2nc2occc12	0.914 (inactive)
CCCCC[C@H](CC(=O)NO)C(=O)N[C@H](C(=O)N1CCC[C@H]1CO)C(C)C	1.01 (inactive)
CCOC(=O)[C@H](CCc1ccccc1)N[C@@H](C)C(=O)N1Cc2ccccc2C[C@H]1C(=O)O	0.981 (inactive)
O=C(Nc1ccccc1)Nc1ccccc1	0.951 (inactive)
CC(CCC(=O)O)[C@H]1CCC2C3C(C[C@H](O)[C@@]21C)[C@@]1(C)CC[C@@H](O)C[C@H]1C[C@H]3O (some centres undefined)	1.03 (inactive)
O=c1cc(-c2ccccc2)oc2cccc(O)c12	0.93 (inactive)
CC(C)CCCC(C)C1CCC2C3CC[C@H]4CCCC[C@]4(C)C3CC[C@]12C (some centres undefined)	1.02 (inactive)
C=C1C2CC[C@@]3(C)[C@H](c4ccoc4)OC(=O)C[C@]13O[C@H]1CC(O)C(C)(C)C(CC(=O)OC)[C@@]21C (some centres undefined)	0.934 (inactive)
CC(CN1c2ccccc2Sc2ccccc21)N(C)C (centres undefined)	0.721 (active)
NC(=O)c1ncn(C2O[C@H](CO)[C@@H](O)[C@H]2O)c1N (some centres undefined)	1.03 (inactive)
Cc1cc(C)cc(OCC2CNC(=O)O2)c1 (centres undefined)	0.977 (inactive)
COc1ccc(C(=O)N2CCCC2=O)cc1	0.976 (inactive)
C=C1C(C2(C)C=CC(=O)C(C)(C)C2CC(=O)OC)CC[C@@]2(C)[C@H](c3ccoc3)OC(=O)C3OC132 (some centres undefined)	0.97 (inactive)

Data origin, for the record: PubChem BioAssay AID1159580
